Target: T1, human G-protein-coupled receptor family C group 5 member D (GPRC5D) (human, UniProt Q9NZD1 1-345)
T1 construct: whole, on cells; also called human GPRC5D protein
T1 sequence (Q9NZD1 whole entry): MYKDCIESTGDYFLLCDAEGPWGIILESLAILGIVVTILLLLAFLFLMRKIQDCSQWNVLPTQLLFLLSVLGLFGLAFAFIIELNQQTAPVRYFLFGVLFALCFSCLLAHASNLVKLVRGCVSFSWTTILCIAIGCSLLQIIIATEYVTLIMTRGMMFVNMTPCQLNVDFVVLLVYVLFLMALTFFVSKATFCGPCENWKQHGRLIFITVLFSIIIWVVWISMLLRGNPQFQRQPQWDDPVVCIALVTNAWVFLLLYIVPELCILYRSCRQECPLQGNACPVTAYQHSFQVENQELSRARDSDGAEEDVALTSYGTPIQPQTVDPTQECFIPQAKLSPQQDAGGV
Assay: FACS, CHO-K1/human GPRC5D, hybridoma supernatant
Assign Bottom to each entry below.
Answers are plain numbers.

Known results for binders:
[
  {
    "binder": "29A7H11H4C12 (antibody, V domains shown, murine antibody from hybridoma supernatant) VH: EVQLQQSGPELVKPGASMKISCKASGYSFTGYTMHWVKQSHGENLEWIGLINPYNGGTNYNQKFKGKATLTVDKSSSTAYMELLSLTSEDSAVYYCSRWGLRRAMDYWGQGTSVTVSS VL: DIVMTQSQKFMSTSIGDRVSVTCKASQNVGSNVAWYQQKPGQSPKALIYSASYRYSGVPDRFTGNGSGTDFTLTISNVQSEDLAEYFCQQYYNSPWTFGGGTKLEIK",
    "Bottom": 43400
  },
  {
    "binder": "58F9G10 (antibody, V domains shown, murine antibody from hybridoma supernatant) VH: EVQLQQSGPELVKTGASVKISCKASGYSFTGYYIHWVKQSHGKSLEWIGYISCYNGATSFNQKFKGKATFTVDTSSSTAYMQFNSLTSEDSAVYYCARTELRGPWFAYWGQGTLVTVSA VL: QTVLTQSPAIMSASPGEKVTMTCSASSSVSYMNWYQQKSGTSPKRWIYDTSKLASGVPARFSGSGSGTSYSLTISSMEAEDAATYYCQQWSNNPLTFGAGTKLELK",
    "Bottom": -14700
  },
  {
    "binder": "21C3C11B3 (antibody, V domains shown, murine antibody from hybridoma supernatant) VH: QVQLQQSGAELVRPGTSVKVSCKASGYAFINYLIEWIKQRPGQGLEWIGMINPGSGGTNYNEKFKDKATLTADKSSSTAYMQLSSLTSDDSAVYFCARNWDVWGQGTTLTVSS VL: DVVMTQSPLSLPVSLGDQASVSCRSSQSLVHSTGNTYLHWYLQKPGQSPKLLIYKVSNRFSGVPDRFSGSGSGTDFTLKISRVEAEDLGVYFCSQSTHVPWTFGGGTKLEIK",
    "Bottom": 57000
  },
  {
    "binder": "40A5B2 (antibody, V domains shown, murine antibody from hybridoma supernatant) VH: EVQLQQSGPELVKPGASVKMSCKASGYTFTRNIMHWVKQKPGQGLEWIGYINPYNAGSKYNEKFKGKATLTSDISSSTAYMELSSLTSEDSAVYYCAREEVYYRYGAWFAYWGHGTLVTVSA VL: DIVLTQSPASLAVSLGQRATISCRASQSVSTSSYSYMHWYQQKPGQPPKLLIKYASNLESGVPARFSGSGSGTDFTLNIHPVEEEDTATYYCQHSWEIPRTFGGGTKLEIK",
    "Bottom": 25400
  }
]

Request: # input binder: 34D3H1 (antibody, V domains shown, murine antibody from hybridoma supernatant) VH: EVHLVESGGDLVKPGGSLKLSCAASGFTFSSYGMSWVRQTPDKRLEWVATISSGGSYTYYPDSVKGRFTISRDNAKNTLNLQMSSLKSEDTAMYYCARQGGDAMDYWGQGTSVTVSS VL: DIVLTQSPATLSVTPGDSVSLSCRASQSINNNLHWYQQKSHESPRLLIKYASQSISGIPSRFSGSGSGTDFTLSINSVETEDFGMYFCQQSNSRLTFGAGTKLELK ; wanted: its Bottom
Result: -13300
